Measured values drawn from patent US4843062A for this set.

target: aldose reductase (Bos taurus); construct: preparation of the enzyme from bovine lens; from tissue; host or cells: bovine lens; test: Aldose reductase inhibition in vitro (enzyme preparation from bovine lens, modified Hayman and Kinoshita procedure); assay type: biochemical; settings: 10^-6 M; read-out: % Inhibition IN VITRO
QUANTITY: inhibition at 1 µM (%)

Answered cases to consult:
COc1ccc2c(C(=O)N(CC(=O)O)C(=O)c3ccccc3)cccc2c1C(F)(F)F; 62
COc1ccc2c(C(=O)N(CC(=O)O)C(=O)OCc3ccc(Cl)c([N+](=O)[O-])c3)cccc2c1C(F)(F)F; 89
CN(C)C(=O)N(CC(=O)O)C(=O)c1cccc2c(Br)cccc12; 4
COc1ccc2c(C(=O)N(CC(=O)O)C(C)=O)cccc2c1C(F)(F)F; 91
O=C(O)CN(C(=O)c1ccccc1)C(=O)c1cccc2c(Br)cccc12; 58

a = O=CN(CC(=O)O)C(=O)c1cccc2c(Br)cccc12
b = COc1ccc2c(C(=O)N(CC(=O)O)C(=O)N(C)C)cccc2c1C(F)(F)F
c = CC(=O)N(CC(=O)O)C(=O)c1cccc2c(Br)cccc12
With regard to inhibition at 1 µM, arrange the entries in ascending order, please. Lab note: record answer as labels in requested order.
b, c, a

1 = COC(=O)N(CC(=O)O)C(=O)c1cccc2c(Br)cccc12
2 = COC(=O)N(CC(=O)O)C(=O)c1cccc2c(C(F)(F)F)c(OC)ccc12
Form field 'greater inhibition at 1 µM' accepts 1 or 2 ; which applies? // caller expects the label of the chosen entry
2

A = O=C(O)CN(C(=O)OCc1ccccc1)C(=O)c1cccc2c(Br)cccc12
B = CCCOC(=O)N(CC(=O)O)C(=O)c1cccc2c(C(F)(F)F)c(OC)ccc12
Please let me know which one, A or B , has a lower measured inhibition at 1 µM value. // caller expects the label of the chosen entry
A

---

Molecular target: aldose reductase (Bos taurus, UniProt P16116)
Construct: preparation of the enzyme from bovine lens; from tissue; host or cells: bovine lens
Experiment: Aldose reductase inhibition in vitro (enzyme preparation from bovine lens, modified Hayman and Kinoshita procedure)
Assay type: biochemical
Settings: 10^-5 M; read-out: % Inhibition IN VITRO
Description: Only two minor reagent changes were made: (a) The rinsing mixture was an aqueous 5% (w/v) trichloroacetic acid solution and (b) the stock solution was prepared by dissolving 25 mg of dulcitol in 100 mL of an aqueous trichloroacetic acid solution. [N.B.: For each experiment the average value found in the tissue from rats fed the glucose diet was subtracted from the individual values found in the corresponding tissue in galactose-fed rats to obtain the amount of polyol accumulated.] […]
QUANTITY: inhibition at 10 µM (%)

Answered cases to consult:
CCCOC(=O)N(CC(=O)O)C(=O)c1cccc2c(C(F)(F)F)c(OC)ccc12 [Example 3]; 95
COc1ccc2c(C(=O)N(CC(=O)O)C(=O)OCc3ccc(Cl)c([N+](=O)[O-])c3)cccc2c1C(F)(F)F [Example 7]; 95
CCOC(=O)N(CC(=O)O)C(=O)c1cccc2c(C(F)(F)F)c(OC)ccc12 [Example 1]; 97
COC(=O)N(CC(=O)O)C(=O)c1cccc2c(C(F)(F)F)c(OC)ccc12 [Example 2]; 98

a = COc1ccc2c(C(=O)N(CC(=O)O)C(=O)OCC(C)(C)C)cccc2c1C(F)(F)F [Example 5]
b = CN(C)C(=O)N(CC(=O)O)C(=O)c1cccc2c(Br)cccc12 [Example 17]
Please let me know which one, a or b , has a lower measured inhibition at 10 µM value. // caller expects the label of the chosen entry
b

1 = O=C(O)CN(C(=O)OCc1ccccc1)C(=O)c1cccc2c(Br)cccc12 [Example 13]
2 = COc1ccc2c(C(=O)N(CC(=O)O)C(=O)N(C)C)cccc2c1C(F)(F)F [Example 11]
Please let me know which one, 1 or 2 , has a lower measured inhibition at 10 µM value. // caller expects the label of the chosen entry
2
(2: 22%, 1: 87%)
